System: Rattus norvegicus
Test: Ratio of the distribution of [125I]-labeled compound in heart/blood of female Fischer 344 rat 4 hr after intravenous administration.
Assay type: ADME, organism-based
Settings: other tissue
Experimental readout: Heart/blood ratio
Number only, please.

Reported Heart/blood ratio, compound O=C(O)CCCCCCCCCCCCCCC/C=C/I : ____
3.5

====

Tested on: Rattus norvegicus
Experiment: Distribution of the [125I]-labeled compound in heart tissue of female Fischer 344 rat 5 min after intravenous administration. Value in the parentheses is ratio of distribution in heart and blood
Type: ADME, organism-based
Details: in vivo
Experimental readout: Injected dose/g tissue (%)
# unit: % | format: bare number

Reported Injected dose/g tissue, compound O=C(O)CCC[Te]CCCCCCCCCCC/C=C/I : ____
3.9

Reported Injected dose/g tissue, compound O=C(O)CCCCCCCCC[Te]CCCCC/C=C/I : ____
3.1

Reported Injected dose/g tissue, compound O=C(O)CCCCC[Te]CCCCCCCCC/C=C/I : ____
3.5

Reported Injected dose/g tissue, compound O=C(O)CCCCCCC[Te]CCCCCCC/C=C/I : ____
4.8

Reported Injected dose/g tissue, compound O=C(O)CCCCCCCCCCC[Te]CCC/C=C/I : ____
1.5
